# PROTOCOL_TEXT: qHTS of pediatric cancer cell lines to identify multiple opportunities for drug repurposing: Primary screen for NB1643 cells (AID 1347099); also: nearly all actives have a fitted effect of over 50% in size
# STUDY_CONDITIONS: NB1643 neuroblastoma viability, CellTiter-Glo luminescence, 48 h; series mostly up to 46 µM
Records with an inconclusive call do not appear. Activity calls are given as the source filed them. Calls follow the shape of the dose curve; as a rule, active = well fitted cell-killing curve with a large enough effect; inconclusive = small, poorly fitted or top-dose-only effect; inactive = no such curve, though single readings can be large or run the other way.
Outcomes you can answer with include only these: yes (1) for active, no (0) for inactive

Ask: Kindly provide the recorded test outcome for the following molecule: CN(C)CCOC(=O)C(c1ccccc1)C1(O)CCCC1 (centres undefined)
Reply: no (0)

Ask: Kindly provide the recorded test outcome for the following molecule: CO[C@]12C[C@@H](COC(=O)c3cncc(Br)c3)CN(C)[C@@H]1Cc1cn(C)c3cccc2c13
Reply: no (0)

Ask: Kindly provide the recorded test outcome for the following molecule: Nc1ccc(S(=O)(=O)Nc2cnc3ccccc3n2)cc1
Reply: no (0)

Ask: Kindly provide the recorded test outcome for the following molecule: Cc1cc2c(OCC(CNC(C)(C)C)OC(=O)c3ccccc3)cccc2[nH]1 (centres undefined)
Reply: no (0)

Ask: Kindly provide the recorded test outcome for the following molecule: COC(=O)C(c1ccccc1Cl)N1CCc2sccc2C1 (centres undefined)
Reply: no (0)

Ask: Kindly provide the recorded test outcome for the following molecule: C[C@H]1O[C@@H](O[C@H]2CC[C@@]3(C)[C@H](CC[C@@H]4[C@@H]3C[C@@H](O)[C@]3(C)[C@@H](C5=CC(=O)OC5)CC[C@]43O)C2)C[C@H](O)[C@@H]1O[C@H]1C[C@H](O)[C@H](O[C@H]2C[C@H](O)[C@H](O[C@@H]3O[C@H](CO)[C@@H](O)[C@H](O)[C@H]3O)[C@@H](C)O2)[C@@H](C)O1
Reply: yes (1)

Ask: Kindly provide the recorded test outcome for the following molecule: O=C(O)CCNC(=O)c1ccccc1
Reply: no (0)

Ask: Kindly provide the recorded test outcome for the following molecule: CCCCCCCCCCCCCC(=O)OC(C)C
Reply: no (0)

Ask: Kindly provide the recorded test outcome for the following molecule: CC(=O)Oc1ccc(C)cc1
Reply: no (0)
